- System: human PBMCs
- PROTOCOL: Human PBMC cytokine response assay (IFN-γ and IFN-α in cell-free medium by ELISA), with or without cPLGA
- Assay type: cell-based
- MEASUREMENT_CONTEXT: Table 11; donor 28042
Could you please report measured IFN-α for the items listed next?
Quick note: give the figure in pg/mL, leave out the unit.

Task item: Which value of IFN-α has been reported for 5′-GsGs-3′-C3-5′-TCGTGC-3′-C3-5′-ATCGAT-3′-C3-5′-GCACGA-3′-C3-5′-GGsGsGsGsG-3′ (s = phosphorothioate linkages, otherwise linkages are phosphodiester) [Compound C-85] in the records?
Reply: 0

Task item: Which value of IFN-α has been reported for (5′-TCGTCGA-3′-HEG)2-glycerol-HEG-5′-TCGTCGA-3′ (phosphodiester) [Compound C-93] in the records?
Reply: 7

Task item: Which value of IFN-α has been reported for 5′-TGACTGTGA-3′-HEG-5′-ACGTTCG-3′-HEG-5′-AGATGAT-3′ [Compound C-53] in the records?
Reply: 0

Task item: Which value of IFN-α has been reported for (5′-TCGTCGA-3′-HEG)2-glycerol-HEG-5′-TCGTCGA-3′ [Compound C-94] in the records?
Reply: 302

----------
- Tested on: human PBMCs
- PROTOCOL: Human PBMC cytokine response assay (IFN-γ and IFN-α in cell-free medium by ELISA), with or without cPLGA
- Format: cell-based
- MEASUREMENT_CONTEXT: Table 10; donor 28044
Could you please report measured IFN-γ for the items listed next?
Quick note: give the figure in pg/mL, leave out the unit.

Task item: Which value of IFN-γ has been reported for 5′-CGTTCGA-3′-HEG-5′-CGTTCGA-3′-HEG-5′-CGTTCGA-3′ [Compound C-52] in the records?
Reply: 212

Task item: Which value of IFN-γ has been reported for 5′-TCGTCG-3′-HEG-5′-TCGA-3′ [Compound C-40] in the records?
Reply: 20

Task item: Which value of IFN-γ has been reported for 5′-TGCTGC-3′-HEG-5′-AGCTTGC-3′-HEG-5′-AGATGAT-3′ [Compound M-1, reference compound] in the records?
Reply: 7

Task item: Which value of IFN-γ has been reported for 5′-TCGTCGT-3′-HEG-5′-TCGTCGT-3′-HEG-5′-TCGTCGT-3′ [Compound C-42] in the records?
Reply: 4000

Task item: Which value of IFN-γ has been reported for 5′-TCGAACG-3′-HEG-5′-TCGAACG-3′-HEG-5′-TCGAACG-3′ [Compound C-50] in the records?
Reply: 509

Task item: Which value of IFN-γ has been reported for 5′-TTCGTTT-3′-HEG-5′-TTCGTTT-3′-HEG-5′-TTCGTTT-3′ [Compound C-46] in the records?
Reply: 480

Task item: Which value of IFN-γ has been reported for 5′-TCGTCGA-3′-HEG-5′-TCGTCGA-3′-HEG-5′-TCGTCGA-3′ [Compound C-21] in the records?
Reply: 1198

Task item: Which value of IFN-γ has been reported for 5′-TCGACGT-3′-HEG-5′-TCGACGT-3′-HEG-5′-TCGACGT-3′ [Compound C-51] in the records?
Reply: 1114

----------
- Tested on: human PBMCs
- PROTOCOL: Human PBMC cytokine response assay (IFN-γ and IFN-α in cell-free medium by ELISA), with or without cPLGA
- Type: cell-based
- MEASUREMENT_CONTEXT: donor 28187; Table 15
Strand notation (5' to 3'): a small letter for the sugar, then the base; units joined by * are phosphorothioate-linked, units joined directly phosphodiester-linked; [ ] holds rarer units or linkages, { } end groups; capitals alone tell only the bases. d = 2'-deoxy (DNA)
Could you please report measured IFN-g for the items listed next?
Quick note: give the figure in pg/mL, leave out the unit.

Task item: Which value of IFN-g has been reported for (5′-TCGTCGA-3′)2-glycerol-5′-TCGTCGA-3′ [Compound C-28] in the records?
Reply: 75

Task item: Which value of IFN-g has been reported for (5′-TCGTCGA-3′)2-glycerol-5′-AACGTTC-3′ [Compound C-27] in the records?
Reply: 21

Task item: Which value of IFN-g has been reported for 5′-TCGTCGA-3′-HEG-5′-ACGTTCG-3′-HEG-5′-AGATGAT-3′ [Compound C-8] in the records?
Reply: 123

Task item: Which value of IFN-g has been reported for (5′-TCGTCGA-3′-HEG)2-glycerol-HEG-5′-TCGTCGA-3′ [Compound C-94] in the records?
Reply: 384

Task item: Which value of IFN-g has been reported for 5′-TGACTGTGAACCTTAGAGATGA-3′ (SEQ ID NO: 3) (dT*dG*dA*dC*dT*dG*dT*dG*dA*dA*dC*dC*dT*dT*dA*dG*dA*dG*dA*dT*dG*dA) [Compound P-7, negative control, reference compound] in the records?
Reply: 19

Task item: Which value of IFN-g has been reported for 5′-TGCTGCA-3′-C3-5′-AGCTTGC-3′-C3-5′-AGATGAT-3′ (No CG) [Compound C-86] in the records?
Reply: 30

Task item: Which value of IFN-g has been reported for 5′-TCGTCGA-3′-HEG-5′-TCGTCGA-3′-HEG-5′-TCGTCGA-3′ [Compound C-21] in the records?
Reply: 125

Task item: Which value of IFN-g has been reported for Starburst Dendrimer ® -(5′-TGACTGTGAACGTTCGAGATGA-3′)x (X range = 3-16) (SEQ ID NO: 2) (See Ex. 24) [Compound C-102] in the records?
Reply: 101

Task item: Which value of IFN-g has been reported for 5′-TCGTCGA-3′- C3-5′-ACGTTCG-3′-C3-5′-AGATGAT-3′ [Compound C-9] in the records?
Reply: 95

Task item: Which value of IFN-g has been reported for (5′-TCGTCGA-3′-HEG)2-glycerol-HEG-5′-AACGTTC-3′ [Compound C-96] in the records?
Reply: 195

Task item: Which value of IFN-g has been reported for 5′-TCGTCG-3′-HEG-5′-AACGTT-3′-HEG-5′-AGATGAT-3′ [Compound C-23] in the records?
Reply: 29

Task item: Which value of IFN-g has been reported for (5′-TCGTCGA-3′-HEG)2-glycerol-HEG-5′-AACGTTC-3′-HEG-5′-TCGA-3′ [Compound C-97] in the records?
Reply: 125
